B1: FBF1 (parent)
chain: YQRPQDSEDMWGDEDFTFGAYQPT

variants of: B1; assay: protein stability index of a GFP-peptide fusion (GPS, HEK-293T) (PSI 1-6); higher = more stable; settings: c terminus: a fixed tail appended;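 also: lentivirally expressed fusions sorted by FACS into six bins by GFP to DsRed ratio, PSI derived from sequencing read proportions per bin multiplied by bin number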
Readout: protein stability index

>>> recorded_value("E14P")
2.03
>>> recorded_value("T17V")
3.07
>>> recorded_value("G19T")
2.6
>>> recorded_value("D6N")
2.25
>>> recorded_value("E8A")
1.9
>>> recorded_value("Y21N")
3.51
>>> recorded_value("R3F")
3.12
>>> recorded_value("W11A")
4.45
>>> recorded_value("D13M")
2.32
>>> recorded_value("Y1E")
4.84
>>> recorded_value("D9I")
2.13
>>> recorded_value("F16T")
2.8
>>> recorded_value("F18C")
3.19
>>> recorded_value("Q22L")
2.77
>>> recorded_value("A20D")
3.02
>>> recorded_value("S7C")
2.34
>>> recorded_value("E8C")
1.99
>>> recorded_value("S7K")
3.01
>>> recorded_value("D6T")
2.53
>>> recorded_value("E8N")
2
>>> recorded_value("W11I")
4.19
>>> recorded_value("M10S")
3.5
